tested on: human Factor 7 mRNA; assay: Inhibition of human Factor 7 mRNA by 2-10-2 MOE shortmers in HepB3 cells, electroporation, 1,000 nM; assay type: cell-based; conditions: electroporation, 1,000 nM oligonucleotide, approximately 24 hours, relative to untreated control cells
In the oligonucleotide strings, read from the 5' end, every base follows the letter of its sugar. An asterisk marks phosphorothioate; unmarked linkages are phosphodiester. Other units and linkages are bracketed, terminal groups are in braces. A string of capitals states the bases alone. e = 2'-O-(2-methoxyethyl) (MOE); [5mC] = 5-methylcytosine; d = 2'-deoxy (DNA)
We use 20% as the dividing line for % inhibition of human Factor 7 mRNA: on or above the line is TRUE, below is FALSE.

435720 (antisense eA*eG*dG*d[5mC]*dT*d[5mC]*dA*dG*d[5mC]*dT*dG*dG*eG*e[5mC]) [compound 435720] = FALSE
435836 (antisense e[5mC]*eT*dA*dG*dG*dT*d[5mC]*dT*dG*d[5mC]*dA*dG*eG*eG) [compound 435836] = TRUE
435479 (antisense e[5mC]*eA*d[5mC]*dT*d[5mC]*d[5mC]*d[5mC]*d[5mC]*dT*dT*dT*dG*eG*eG) [compound 435479] = FALSE
435846 (antisense eT*eG*dG*dA*dG*dA*dG*dA*d[5mC]*d[5mC]*dA*dA*eT*eG) [compound 435846] = FALSE
435797 (antisense eA*eA*dT*d[5mC]*dT*dT*dG*dG*d[5mC]*d[5mC]*d[5mC]*d[5mC]*eT*e[5mC]) [compound 435797] = FALSE
435724 (antisense e[5mC]*eT*dG*dA*dG*dG*d[5mC]*d[5mC]*dA*dG*d[5mC]*dA*eG*eA) [compound 435724] = TRUE
435502 (antisense eG*eT*dA*d[5mC]*dT*dG*dG*dG*dA*dG*dA*d[5mC]*e[5mC]*e[5mC]) [compound 435502] = TRUE
435729 (antisense eA*e[5mC]*dA*dG*d[5mC]*dA*d[5mC]*dA*d[5mC]*dA*dT*dG*eG*eA) [compound 435729] = TRUE
435767 (antisense e[5mC]*eA*d[5mC]*d[5mC]*dA*dA*dG*dT*dT*dT*dA*dT*eG*eG) [compound 435767] = FALSE
435639 (antisense eT*e[5mC]*d[5mC]*dA*dG*dA*dA*d[5mC]*dA*dG*d[5mC]*dT*eT*e[5mC]) [compound 435639] = TRUE

Enquiry: Reported % inhibition of human Factor 7 mRNA at or above 20%? 435657 (antisense eG*e[5mC]*dA*dG*dT*dA*d[5mC]*dT*dG*d[5mC]*dT*d[5mC]*eA*e[5mC]) [compound 435657]
Return: TRUE

Enquiry: Does the substance 435757 (antisense eT*eG*d[5mC]*d[5mC]*dT*dG*dA*dG*dT*dG*d[5mC]*d[5mC]*e[5mC]*e[5mC]) [compound 435757] have recorded % inhibition of human Factor 7 mRNA that is 20% or more?
Return: TRUE

Enquiry: Kindly determine if % inhibition of human Factor 7 mRNA recorded for 435499 (antisense e[5mC]*eT*dG*dG*dG*dA*dG*dA*d[5mC]*d[5mC]*d[5mC]*dT*eG*eG) [compound 435499] is above or exactly 20%.
Return: TRUE

Enquiry: Has 435774 (antisense eG*eT*d[5mC]*d[5mC]*d[5mC]*dA*dG*dG*dG*dA*dA*dG*eG*e[5mC]) [compound 435774] a recorded % inhibition of human Factor 7 mRNA greater than or equal to 20%?
Return: FALSE

Enquiry: // inclusive: % inhibition of human Factor 7 mRNA at least 20%? input: 435721 (antisense eT*eA*dA*dG*dG*dA*dG*dG*d[5mC]*dT*d[5mC]*dA*eG*e[5mC]) [compound 435721]
Return: FALSE

Enquiry: Could you please find out whether 435483 (antisense e[5mC]*eT*dG*dG*dG*dT*d[5mC]*dA*dT*d[5mC]*dA*dG*e[5mC]*e[5mC]) [compound 435483] has % inhibition of human Factor 7 mRNA that meets 20% or exceeds it?
Return: TRUE
